Hello, the source for this data is patent US6417180B1, in case you need it.

Target: C915A B. subtilis pol III (Bacillus subtilis, UniProt P13267, C915A)
Construct: Each of the three full-length mutants (C912A, C915A, and C940A); made in house; host or cells: E. coli SG101, plasmid pSGA04
Sequence (P13267 7-1437 C915A): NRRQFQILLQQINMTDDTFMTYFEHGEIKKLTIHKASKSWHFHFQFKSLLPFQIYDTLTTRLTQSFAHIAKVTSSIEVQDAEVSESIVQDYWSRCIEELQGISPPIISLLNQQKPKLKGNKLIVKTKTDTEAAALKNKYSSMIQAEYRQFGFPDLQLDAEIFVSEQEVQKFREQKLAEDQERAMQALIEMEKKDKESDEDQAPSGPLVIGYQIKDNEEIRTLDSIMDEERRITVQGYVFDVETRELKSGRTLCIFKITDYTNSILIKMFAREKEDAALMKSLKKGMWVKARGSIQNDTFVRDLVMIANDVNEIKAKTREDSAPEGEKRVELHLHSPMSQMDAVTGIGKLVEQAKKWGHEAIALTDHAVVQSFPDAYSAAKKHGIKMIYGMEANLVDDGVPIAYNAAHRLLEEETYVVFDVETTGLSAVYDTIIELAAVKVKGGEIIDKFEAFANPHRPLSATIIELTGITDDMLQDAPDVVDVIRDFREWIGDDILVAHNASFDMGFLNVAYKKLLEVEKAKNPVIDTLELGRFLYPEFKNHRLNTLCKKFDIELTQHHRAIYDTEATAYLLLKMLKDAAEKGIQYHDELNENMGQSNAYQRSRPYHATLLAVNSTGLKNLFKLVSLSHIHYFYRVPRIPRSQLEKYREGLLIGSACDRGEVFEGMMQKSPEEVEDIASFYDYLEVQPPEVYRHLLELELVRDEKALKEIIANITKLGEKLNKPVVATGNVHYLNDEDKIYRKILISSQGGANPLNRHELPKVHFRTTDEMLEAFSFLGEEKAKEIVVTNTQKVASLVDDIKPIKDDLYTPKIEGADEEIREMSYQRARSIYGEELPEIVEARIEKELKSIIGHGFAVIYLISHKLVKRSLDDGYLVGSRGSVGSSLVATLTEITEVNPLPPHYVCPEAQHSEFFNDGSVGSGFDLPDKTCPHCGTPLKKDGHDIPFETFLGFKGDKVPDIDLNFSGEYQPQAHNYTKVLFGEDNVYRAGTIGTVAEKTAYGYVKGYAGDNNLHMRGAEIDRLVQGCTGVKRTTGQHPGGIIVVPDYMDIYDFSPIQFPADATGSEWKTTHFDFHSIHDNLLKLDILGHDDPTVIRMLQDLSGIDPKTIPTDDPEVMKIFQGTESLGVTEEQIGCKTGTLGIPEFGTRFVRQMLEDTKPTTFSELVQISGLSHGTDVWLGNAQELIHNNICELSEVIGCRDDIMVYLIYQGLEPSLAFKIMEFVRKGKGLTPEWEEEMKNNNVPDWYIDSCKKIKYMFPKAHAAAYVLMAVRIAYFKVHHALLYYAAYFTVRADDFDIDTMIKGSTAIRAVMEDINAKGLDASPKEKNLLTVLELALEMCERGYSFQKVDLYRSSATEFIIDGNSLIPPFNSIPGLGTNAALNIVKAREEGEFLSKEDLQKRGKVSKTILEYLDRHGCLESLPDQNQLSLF
Test: TMAU sensitivity of polymerase activity, C915A mutant
Type: biochemical
Details: C915A enzyme
RECORDED_METRIC: IC50 (µM)

>>> experimental_result("O=c1cc(Nc2ccc3c(c2)CCC3)[nH]c(=O)[nH]1")
2.9
